Recorded values, source patent US9988399B2.

Target: ACC2 (Homo sapiens, UniProt O00763)
Sequence (O00763 whole entry, species assumed): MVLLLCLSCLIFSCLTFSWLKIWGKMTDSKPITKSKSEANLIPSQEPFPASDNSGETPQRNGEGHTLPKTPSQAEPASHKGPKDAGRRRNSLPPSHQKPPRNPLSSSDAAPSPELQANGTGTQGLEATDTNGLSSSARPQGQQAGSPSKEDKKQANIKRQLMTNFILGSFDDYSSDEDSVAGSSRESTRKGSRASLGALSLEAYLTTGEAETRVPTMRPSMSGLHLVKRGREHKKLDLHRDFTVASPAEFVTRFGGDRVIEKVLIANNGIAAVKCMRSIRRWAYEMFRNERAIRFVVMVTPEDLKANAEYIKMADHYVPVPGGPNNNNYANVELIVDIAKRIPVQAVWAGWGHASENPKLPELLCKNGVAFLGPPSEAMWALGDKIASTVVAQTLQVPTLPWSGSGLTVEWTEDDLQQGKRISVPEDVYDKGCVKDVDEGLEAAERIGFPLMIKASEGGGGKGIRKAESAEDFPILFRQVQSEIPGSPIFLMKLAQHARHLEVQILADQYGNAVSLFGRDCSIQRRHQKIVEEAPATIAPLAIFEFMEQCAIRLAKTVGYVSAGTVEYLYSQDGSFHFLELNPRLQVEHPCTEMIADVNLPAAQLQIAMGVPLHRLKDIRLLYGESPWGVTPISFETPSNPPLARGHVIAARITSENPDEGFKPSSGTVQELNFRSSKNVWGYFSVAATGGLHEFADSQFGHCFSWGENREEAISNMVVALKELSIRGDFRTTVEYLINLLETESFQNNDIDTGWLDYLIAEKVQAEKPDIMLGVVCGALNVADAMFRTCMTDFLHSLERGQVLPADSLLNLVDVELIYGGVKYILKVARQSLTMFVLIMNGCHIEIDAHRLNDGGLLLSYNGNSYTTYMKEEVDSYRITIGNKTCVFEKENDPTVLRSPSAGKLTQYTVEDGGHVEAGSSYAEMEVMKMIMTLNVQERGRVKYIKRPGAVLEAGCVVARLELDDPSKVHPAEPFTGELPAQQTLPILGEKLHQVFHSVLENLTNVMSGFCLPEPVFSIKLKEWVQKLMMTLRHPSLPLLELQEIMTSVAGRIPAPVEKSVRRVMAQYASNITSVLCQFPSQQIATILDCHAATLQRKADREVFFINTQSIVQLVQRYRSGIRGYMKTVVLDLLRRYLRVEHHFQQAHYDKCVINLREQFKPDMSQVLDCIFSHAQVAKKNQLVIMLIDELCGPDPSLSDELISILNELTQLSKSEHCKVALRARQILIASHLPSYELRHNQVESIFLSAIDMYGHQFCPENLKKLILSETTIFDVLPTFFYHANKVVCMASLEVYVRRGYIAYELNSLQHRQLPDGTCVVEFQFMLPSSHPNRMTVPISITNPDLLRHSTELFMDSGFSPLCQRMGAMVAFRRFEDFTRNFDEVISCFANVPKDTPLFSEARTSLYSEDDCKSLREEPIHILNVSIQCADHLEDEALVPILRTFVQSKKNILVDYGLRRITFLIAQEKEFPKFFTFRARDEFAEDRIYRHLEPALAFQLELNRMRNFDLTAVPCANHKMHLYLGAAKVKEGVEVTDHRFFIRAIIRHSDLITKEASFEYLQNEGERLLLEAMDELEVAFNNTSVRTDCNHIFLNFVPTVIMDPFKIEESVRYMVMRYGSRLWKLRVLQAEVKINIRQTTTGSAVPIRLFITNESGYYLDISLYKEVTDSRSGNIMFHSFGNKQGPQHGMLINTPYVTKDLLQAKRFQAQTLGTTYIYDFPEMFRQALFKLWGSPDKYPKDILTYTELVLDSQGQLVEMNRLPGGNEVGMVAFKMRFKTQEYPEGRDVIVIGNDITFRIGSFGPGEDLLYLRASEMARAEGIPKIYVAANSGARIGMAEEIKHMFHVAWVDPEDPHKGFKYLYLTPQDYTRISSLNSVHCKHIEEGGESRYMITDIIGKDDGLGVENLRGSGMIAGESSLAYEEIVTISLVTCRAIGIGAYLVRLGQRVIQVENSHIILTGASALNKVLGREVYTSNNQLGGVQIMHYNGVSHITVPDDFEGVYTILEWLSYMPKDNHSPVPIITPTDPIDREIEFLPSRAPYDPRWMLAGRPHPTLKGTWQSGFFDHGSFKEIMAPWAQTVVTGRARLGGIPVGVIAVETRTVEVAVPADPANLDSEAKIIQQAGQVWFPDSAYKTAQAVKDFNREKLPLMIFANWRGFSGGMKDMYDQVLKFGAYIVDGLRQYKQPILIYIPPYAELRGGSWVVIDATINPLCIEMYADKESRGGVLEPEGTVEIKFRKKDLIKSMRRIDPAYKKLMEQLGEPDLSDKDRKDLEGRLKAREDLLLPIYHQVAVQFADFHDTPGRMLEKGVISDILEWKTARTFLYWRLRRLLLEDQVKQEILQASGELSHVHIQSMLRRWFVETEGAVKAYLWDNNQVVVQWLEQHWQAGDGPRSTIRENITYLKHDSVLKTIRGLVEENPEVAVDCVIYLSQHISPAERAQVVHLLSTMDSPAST
EXPERIMENTAL_READOUT: IC50

Can you look up the measured IC50 of COc1ccccc1CCn1c(=O)n(CC(=O)O)c(=O)c2c1nc(-c1ncco1)n2C [Compound I-36] for me? 5 to 20 µM
